Target: T1, Human factor D (Advanced Research Inc) (human, UniProt P00746 26-253)
T1 construct: Amine-coupled directly to a CM5 chip for BIAcore; also called factor D antigen
T1 sequence (P00746 26-253 limits assumed): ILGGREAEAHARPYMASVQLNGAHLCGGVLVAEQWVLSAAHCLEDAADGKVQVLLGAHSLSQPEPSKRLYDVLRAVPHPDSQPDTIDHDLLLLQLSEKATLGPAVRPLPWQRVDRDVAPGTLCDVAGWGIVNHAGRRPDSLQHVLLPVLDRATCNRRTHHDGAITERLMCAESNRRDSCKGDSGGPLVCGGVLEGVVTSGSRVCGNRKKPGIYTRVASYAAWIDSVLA
Experiment: SPR (BIAcore), human factor D amine-coupled to CM5 chip, Fab as analyte, 1:1 model, global fit
measure: Kd (nM)
Provide the reading as a plain figure in nM.

// known answers, use as guide
>  <binder>
humanized anti-Factor D Fab clone #56 (Fab, V domains shown) VH: QVQLVQSGPELKKPGASVKVSCKASGYTFTNYGMNWVKQAPGQGLEWMGWINTYTGETTYADDFKGRFVFSLDTSVSTAYLQISSLKAEDTATYYCEREGGVDNWGQGTLVTVSS VL: DIQVTQSPSSLSASVRDRVTITCITSTDIDDDMNWYQQKPGKVPKLLISGGNTLRPGVPSRFSGSGSGTDFTLTISSLQPEDVATYYCLQSDNLPYTFGQGTKLEIK

>  <recorded_number>
2.7

$$$$
>  <binder>
humanized anti-Factor D Fab clone #250 (Fab, V domains shown) VH: QVQLVQSGPELKKPGASVKVSCKASGYTFTNYGLNWVRQAPGQGLEWMGWINTYTGETTYADDFKGRFVFSLDTSVSTAYLQISSLKAEDTAVYYCEREGGVNNWGQGTLVTVSS VL: DIQVTQSPSSLSASVGDRVTITCITSTDIDDDMNWYQQKPGKVPKLLISHGNTLRPGVPSRFSGSGSGTDFTLTISSLQPEDVATYYCLQSDSLPYTFGQGTKLEIK

>  <recorded_number>
0.33

$$$$
>  <binder>
chimeric 166-32 Fab (Fab, V domains shown, Tested as a Fab; also called chimeric Fab) VH: QIQLVQSGPELKKPGETVKISCKASGYTFTNYGMNWVKQAPGKGLKWMGWINTYTGETTYADDFKGRFVFSLETSASTAYLEINNLKNEDMATYFCEREGGVDNWGQGTTLTVSS VL: ETTVTQSPASLSMAIGEKVTIRCITSTDIDDDMNWYQQKPGEPPKLLISGGNTLRPGVPSRFSSSGYGADFVFTIDNMLSEDVADYYCLQSDNLPYTFGGGTRLEIK

>  <recorded_number>
2.7

$$$$

API: the following record is the query input.
Name the reported Kd value associated with the binder humanized anti-Factor D Fab clone #416 (Fab, V domains shown) VH: QVQLVQSGPELKKPGASVKVSCKASGYTFTSYGMNWVRQAPGQGLEWMGWINTYTGETTYADDFKGRFVFSLDTSVSTAYLQISSLKAEDTAVYYCEREGGVNNWGQGTLVTVSS VL: DIQVTQSPSSLSASVGDRVTITCITSTDIDDDMNWYQQKPGKVPKLLISDGNTLRPGVPSRFSGSGSGTDFTLTISSLQPEDVATYYCLQSDSLPYTFGQGTKLEIK
0.33
